# EXPERIMENT_SUMMARY: Equilibrium solubility in polysorbate 80 / PEG 300 mixtures (72 hours, HPLC)
# Type: physicochemical
# CONDITION_PARAMETERS: polysorbate 80 / PEG 300 mixture, organic solvent or mixture, thermodynamic from solid, 45% PEG 300, 55% polysorbate 80; equilibrated 72 hours
QUANTITY_KIND: solubility at 72 h (mg/mL)
Quick note: give the figure in mg/mL, leave out the unit.

Consider the molecule shown here: CC(C)c1cc(-c2n[nH]c(=O)n2-c2ccc3c(ccn3C)c2)c(O)cc1O What is its recorded solubility at 72 h?
84.7

====

# EXPERIMENT_SUMMARY: Equilibrium solubility in polysorbate 80 / PEG 300 mixtures (72 hours, HPLC)
# Type: physicochemical
# CONDITION_PARAMETERS: polysorbate 80 / PEG 300 mixtures, organic solvent or mixture, thermodynamic from solid, in all three polysorbate 80 / PEG 300 solutions
QUANTITY_KIND: solubility at 72 h

Consider the compound shown here: CC(C)c1cc(-c2n[nH]c(=O)n2-c2ccc3c(ccn3C)c2)c(O)cc1O What is its recorded solubility at 72 h?
> 75 mg/mL
